System: Mus musculus
Assay: fAUC in BALB/c mouse at 110 mg/kg, sc administered every 12 hrs
Conditions: in vivo
result.type: fAUC (µg·h/mL)
One number for each entry, in µg·h/mL.

Data request, read-out fAUC, for CN[C@H](CC(C)C)C(=O)N[C@H]1C(=O)N[C@@H](CC(N)=O)C(=O)N[C@H]2C(=O)N[C@H]3C(=O)N[C@H](C(=O)N[C@H](C(=O)O)c4cc(O)cc(O)c4-c4cc3ccc4O)[C@H](O)c3ccc(c(Cl)c3)Oc3cc2cc(c3O[C@@H]2O[C@H](CO)[C@@H](O)[C@H](O)[C@H]2O[C@H]2C[C@](C)(N)[C@H](O)[C@H](C)O2)Oc2ccc(cc2Cl)[C@H]1O
196

* * *

Tested on: Staphylococcus aureus
Test: Antibacterial activity against community-associated methicillin-resistant Staphylococcus aureus isolate 145 by broth microdilution assay
Assay type: functional
Task for the reader: assign each of the following molecules its reported MIC.
Numbers only, in µg/mL.

O=C(O)c1cn(C2CC2)c2cc(N3CCNCC3)c(F)cc2c1=O :: 8
CN(C)c1cc(NC(=O)CNC(C)(C)C)c(O)c2c1C[C@H]1C[C@H]3[C@H](N(C)C)C(O)=C(C(N)=O)C(=O)[C@@]3(O)C(O)=C1C2=O :: 0.25

Data request, read-out MIC, for CCCCCCCCCC(=O)N[C@@H](Cc1c[nH]c2ccccc12)C(=O)N[C@H](CC(N)=O)C(=O)N[C@@H](CC(=O)O)C(=O)N[C@@H]1C(=O)NCC(=O)N[C@@H](CCCN)C(=O)N[C@@H](CC(=O)O)C(=O)N[C@H](C)C(=O)N[C@@H](CC(=O)O)C(=O)NCC(=O)N[C@H](CO)C(=O)N[C@@H]([C@H](C)CC(=O)O)C(=O)N[C@@H](CC(=O)c2ccccc2N)C(=O)O[C@@H]1C
0.5

Source of measurements: ChEMBL document CHEMBL1687804
